# assayRemarks: Efflux ratio of apparent permeability in human Caco2 cells at 10 uM at pH 7.4
# Type: ADME, cell-based
# reportedConditions: Caco-2, pH 7.4
observationType: efflux ratio at 10 µM

Example entries begin here.
| smilesString | assayValue |
| --- | --- |
| C=CC(=O)N1CCN2c3c(cnc4cc(-c5c(O)cccc5F)c(Cl)cc34)OC[C@H]2C1 | 0.5 |
| C=CC(=O)N1CCN2c3c(cnc4cc(-c5c(O)cccc5F)c(Cl)cc34)N(C)C[C@H]2C1 | 1.5 |
| C=CC(=O)N1C[C@@H]2COc3cnc4cc(-c5c(O)cccc5F)c(Cl)cc4c3N2C[C@H]1C | 0.7 |

Give reported efflux ratio at 10 µM value for C=CC(=O)N1CCN2c3c(cnc4cc(-c5c(O)cccc5F)c(Cl)cc34)NC(=O)[C@H]2C1 17.9

Give reported efflux ratio at 10 µM value for C=CC(=O)N1C[C@@H]2C(=O)N(C)c3cnc4c(F)c(-c5c(O)cccc5F)c(Cl)cc4c3N2C[C@H]1C 1.1

Give reported efflux ratio at 10 µM value for C=CC(=O)N1CCN2c3c(cnc4cc(-c5c(O)cccc5F)c(Cl)cc34)N(C)C(=O)[C@H]2C1 0.9

Give reported efflux ratio at 10 µM value for C=CC(=O)N1CCN2c3c(cnc4cc(-c5c(O)cccc5F)c(Cl)cc34)NC[C@H]2C1 1.4

Give reported efflux ratio at 10 µM value for C=CC(=O)N1CCN2c3c(cnc4c(F)c(-c5c(O)cccc5F)c(Cl)cc34)N(C)C(=O)[C@H]2C1 1.5

* * *

# assayRemarks: Intrinsic clearance in human liver microsomes
# Format: ADME, Microsome
# reportedConditions: liver microsomes, read-out: CLH
Here the recorded microsomal CLint is given for each entry.
Returns: string containing the numeric result and its unit.

| molecule | microsomal CLint |
| --- | --- |
| C=CC(=O)N1CCN2c3c(cnc4c(OC)c(-c5c(O)cccc5F)c(Cl)cc34)OC[C@H]2C1 (single isomer, unassigned; atropisomer 2) | 40 µL/min/mg |
| C=CC(=O)N1C[C@@H]2COc3cnc4cc(-c5c(O)cccc5F)c(Cl)cc4c3N2C[C@@H]1C | 100 µL/min/mg |
| C=CC(=O)N1CCN2c3c(cnc4cc(-c5c(O)cccc5F)c(Cl)cc34)OC[C@H]2C1 | 25 µL/min/mg |

Turning to the following molecule.
Give reported microsomal CLint value for C=CC(=O)N1C[C@@H]2COc3cnc4cc(-c5c(O)cccc5F)c(Cl)cc4c3N2C[C@H]1C 32 µL/min/mg

* * *

# systemTested: GTPase KRas (Homo sapiens, UniProt P01116, G12C)
# assayRemarks: Inhibition of GDP bound biotinylated human C-terminal Avi/His6-tagged KRAS G12C mutant (1 to 166 residues) expressed in Escherichia coli BL21 (DE3) assessed as reduction in SOS1-mediated GDP/GTP nucleotide exchange by preventing recognition between KRAS G12C mutant and Ras binding domain of N-terminal Avi/GST-tagged Raf-1 (51 to 149 residues) preincubated for 4 hrs followed by SOS1 and GTPgammaS addition by FRET assay
pIC50: −log10 of the molar value.
Answer not fulfilled if pIC50 is under 6, and fulfilled if it is 6 or more.

| compound | classification |
| --- | --- |
| C=CC(=O)N1C[C@@H]2C(=O)N(C)c3cnc4c(F)c(-c5c(O)cccc5F)c(Cl)cc4c3N2C[C@H]1C | fulfilled |

Exam item: decide whether the reported pIC50 for C=CC(=O)N1CCN2c3c(cnc4cc(-c5c(O)cccc5F)c(Cl)cc34)NC(=O)[C@H]2C1 is at least 6. fulfilled

Exam item: decide whether the reported pIC50 for C=CC(=O)N1CCN2c3c(cnc4cc(-c5c(C)ccc6[nH]ncc56)c(Cl)cc34)OC[C@@H]2C1 (single isomer, unassigned; atropisomer 1) is at least 6. not fulfilled

Exam item: decide whether the reported pIC50 for C=CC(=O)N1CCN2c3c(cnc4cc(-c5c(C)ccc6[nH]ncc56)c(Cl)cc34)OC[C@@H]2C1 (single isomer, unassigned; atropisomer 2) is at least 6. fulfilled

Exam item: decide whether the reported pIC50 for C=CC(=O)N1C[C@@H]2COc3cnc4cc(-c5c(O)cccc5F)c(Cl)cc4c3N2C[C@@H]1C is at least 6. not fulfilled

Exam item: decide whether the reported pIC50 for C=CC(=O)N1CCN2c3c(cnc4c(OC)c(-c5c(O)cccc5F)c(Cl)cc34)OC[C@H]2C1 (single isomer, unassigned; atropisomer 2) is at least 6. fulfilled
